Test system: Brain-Specific Receptors of Rats
Test: Inhibition of the binding of 3H-benzodiazepine to brain-specific receptors of rats
Set-up: species or system rat (Wistar)
Conditions: 3H-diazepam 1.5 nM or 3H-flunitrazepam 1.0 nM; rat cortex P2 fraction, pH 7.4, 30 minutes in ice; test concentration not given
Mark y only when % Inhibition stays strictly below 60%. Values equal to the cut-off are n.

INSERT INTO assay_data (molecular_string, cat) VALUES
  ('CCC(=O)N(CC)c1cccc(-c2ccc3nncn3n2)c1', 'n'),
  ('COC(=O)Nc1cccc(-c2ccc3nnc(C)n3n2)c1', 'y'),
  ('CC(=O)N(C)c1cccc(-c2ccc3nnc(C)n3n2)c1', 'n'),
  ('CCC(=O)Nc1cccc(-c2ccc3nnc(C)n3n2)c1', 'y'),
  ('CC(=O)N(C)c1cccc(-c2ccc3nncn3n2)c1', 'y'),
  ('CCN(C(=O)OC)c1cccc(-c2ccc3nncn3n2)c1', 'n'),
  ('CCC(=O)N(C)c1cccc(-c2ccc3nncn3n2)c1', 'y'),
  ('CCC(=O)N(CC)c1cccc(-c2ccc3nnc(C)n3n2)c1', 'n'),
  ('Cc1nnc2ccc(-c3cccc(NC(=O)N(C)C)c3)nn12', 'y'),
  ('COC(=O)N(C)c1cccc(-c2ccc3nnc(C)n3n2)c1', 'n'),
  ('C=CCN(C(C)=O)c1cccc(-c2ccc3nncn3n2)c1', 'n');

###

Recorded % Inhibition, one value per entry.
Tested on: Brain-Specific Receptors of Rats
Test: Inhibition of the binding of 3H-benzodiazepine to brain-specific receptors of rats
Set-up: species or system rat (Wistar)
Details: 3H-diazepam 1.5 nM or 3H-flunitrazepam 1.0 nM; rat cortex P2 fraction, pH 7.4, 30 minutes in ice; test concentration not given
Test readout: % Inhibition (%)

INSERT INTO measurements (molecular_string, test_readout, readout_value) VALUES
  ('CCN(C(C)=O)c1cccc(-c2ccc3nnc(C)n3n2)c1', '% Inhibition', 90),
  ('CC(=O)N(CC1CC1)c1cccc(-c2ccc3nnc(C)n3n2)c1', '% Inhibition', 93),
  ('COC(=O)Nc1cccc(-c2ccc3nncn3n2)c1', '% Inhibition', 18),
  ('CCCN(C(C)=O)c1cccc(-c2ccc3nnc(C)n3n2)c1', '% Inhibition', 93),
  ('C=CCN(C(C)=O)c1cccc(-c2ccc3nnc(C)n3n2)c1', '% Inhibition', 96);

Numbers sourced from patent US4767765A.
